- Test system: 439559-082-T-J2-PDC spheroids viability
- Method notes: Anticancer human tumor 439559-082-T-J2-PDC patient-derived colon adenocarcinoma cell line growth inhibition [GQUAD]
- Conditions used: second compound 0.316 µM; first compound 0.316 µM; stronger effect = lower value
Parameter measured: viability, T/C (%)
Number in %, nothing else.

Field: example entries. Status: answers known.
{"Compound": "C=CC(=O)N1CCN(c2nc(=O)n(-c3c(C)ccnc3C(C)C)c3nc(-c4c(O)cccc4F)c(F)cc23)C(C)C1 (stereo not given) + CN(C)c1ccc(Nc2c3ccc(NC(=O)CCN4CCCC4)cc3nc3cc(NC(=O)CCN4CCCC4)ccc23)cc1", "Unit of measure": "%", "viability, T/C": 91.6}
{"Compound": "Cc1cccc(N(C)C(=O)C2C(O)CCN2c2nc(C)cc(C(F)(F)F)c2C#N)c1 (stereo not given) + Cc1cnc(CNC(=O)c2c(=O)c3ccc(N4CCCN(C)CC4)nc3n3c2sc2ccccc23)cn1", "Unit of measure": "%", "viability, T/C": 79.3}
{"Compound": "COc1ccc([C@@H](O)c2cc(-c3ncnc4cc(N5CCOCC5)ccc34)c(F)cc2Cl)nn1 + CN(C)c1ccc(Nc2c3ccc(NC(=O)CCN4CCCC4)cc3nc3cc(NC(=O)CCN4CCCC4)ccc23)cc1", "Unit of measure": "%", "viability, T/C": 89.6}

Exercise: Please report the recorded viability, T/C for Cc1[nH]c2ccccc2c1CCNCc1ccc(/C=C/C(=O)NO)cc1 + Cc1cnc(CNC(=O)c2c(=O)c3ccc(N4CCCN(C)CC4)nc3n3c2sc2ccccc23)cn1 .
Solution: 65.2

Exercise: Please report the recorded viability, T/C for CC(C)(O)C1CCC(Nc2ccc3ncc(-c4cccc(C(F)(F)F)c4)n3n2)CC1 (stereo not given) + CN(C)c1ccc(Nc2c3ccc(NC(=O)CCN4CCCC4)cc3nc3cc(NC(=O)CCN4CCCC4)ccc23)cc1 .
Solution: 91.8

Exercise: Please report the recorded viability, T/C for C=CCn1c(=O)c2cnc(Nc3ccc(N4CCN(C)CC4)cc3)nc2n1-c1cccc(C(C)(C)O)n1 + Cc1[nH]c2ccc(F)cc2c1-c1nc2c3cccnc3c3ncccc3c2[nH]1 .
Solution: 89

Exercise: Please report the recorded viability, T/C for CC[C@@]1(O)C(=O)OCc2c1cc1n(c2=O)Cc2cc3c(CN(C)C)c(O)ccc3nc2-1 + Cc1[nH]c2ccc(F)cc2c1-c1nc2c3cccnc3c3ncccc3c2[nH]1 .
Solution: 83.3

----------
- Test system: 439559-082-T-J2-PDC spheroids viability
- Method notes: Anticancer human tumor 439559-082-T-J2-PDC cell line growth inhibition [GQUAD];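 also: spheroids exposed to the agents for 7 days before readout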;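 as to viability, T/C: percent of luminescence signal in DMSO vehicle wells taken as 100% viability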
- Conditions used: second compound 10 µM; first compound 0.0999 µM; stronger effect = lower value
Quick reference: viability, T/C of the listed items.
Number in %, nothing else.

Field: example entries. Status: answers known.
{"Compound": "Cc1[nH]c2ccccc2c1CCNCc1ccc(/C=C/C(=O)NO)cc1 + CN(C)c1ccc(Nc2c3ccc(NC(=O)CCN4CCCC4)cc3nc3cc(NC(=O)CCN4CCCC4)ccc23)cc1", "Unit of measure": "%", "viability, T/C": 83}
{"Compound": "CCc1c2c(nc3ccc(O)cc13)-c1cc3c(c(=O)n1C2)COC(=O)[C@]3(O)CC + CN(C)c1ccc(Nc2c3ccc(NC(=O)CCN4CCCC4)cc3nc3cc(NC(=O)CCN4CCCC4)ccc23)cc1", "Unit of measure": "%", "viability, T/C": 59.6}

Could you now consider this next compound?
Exercise: Please report the recorded viability, T/C for CC[C@@]1(O)C(=O)OCc2c1cc1n(c2=O)Cc2cc3c(CN(C)C)c(O)ccc3nc2-1 + Cc1cnc(CNC(=O)c2c(=O)c3ccc(N4CCCN(C)CC4)nc3n3c2sc2ccccc23)cn1 .
Solution: 66.4

----------
- Tested on: 439559-082-T-J2-PDC spheroids viability
- Method notes: Anticancer human tumor 439559-082-T-J2-PDC cell line growth inhibition [GQUAD];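 also: spheroids exposed to the agents for 7 days before readout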;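 as to viability, T/C: percent of luminescence signal in DMSO vehicle wells taken as 100% viability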
- Conditions used: second compound 0.1 µM; first compound 0.0999 µM; stronger effect = lower value
- Source text: DNA G-quadruplex Stabilizer Agents in Combinations in Complex Spheroids A high-throughput screen of multi-cell type tumor spheroids was designed to identify active combinations of DNA G-quadruplex stabilizer agents and targeted small molecules. […] Compounds. […] If the clinical Cmax for an agent had not been determined, the highest concentration tested was 10 microM. […]
Parameter measured: viability, T/C (%)
Number in %, nothing else.

{"Compound": "Cc1[nH]c2ccccc2c1CCNCc1ccc(/C=C/C(=O)NO)cc1 + Cc1cnc(CNC(=O)c2c(=O)c3ccc(N4CCCN(C)CC4)nc3n3c2sc2ccccc23)cn1", "Parameter measured": "viability, T/C", "Reading": 85.9}

Exercise: Please report the recorded viability, T/C for CCc1c2c(nc3ccc(O)cc13)-c1cc3c(c(=O)n1C2)COC(=O)[C@]3(O)CC + Cc1[nH]c2ccc(F)cc2c1-c1nc2c3cccnc3c3ncccc3c2[nH]1 .
Solution: 65.8

Exercise: Please report the recorded viability, T/C for CCc1c2c(nc3ccc(O)cc13)-c1cc3c(c(=O)n1C2)COC(=O)[C@]3(O)CC + Cc1cnc(CNC(=O)c2c(=O)c3ccc(N4CCCN(C)CC4)nc3n3c2sc2ccccc23)cn1 .
Solution: 53.4

Exercise: Please report the recorded viability, T/C for Cn1ncnc1[C@H]1c2n[nH]c(=O)c3cc(F)cc(c23)N[C@@H]1c1ccc(F)cc1 + Cc1[nH]c2ccc(F)cc2c1-c1nc2c3cccnc3c3ncccc3c2[nH]1 .
Solution: 90

----------
- System: 439559-082-T-J2-PDC spheroids viability
- Method notes: Anticancer human tumor 439559-082-T-J2-PDC cell line growth inhibition [GQUAD];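 also: spheroids exposed to the agents for 7 days before readout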
- Conditions used: curve of first compound; second compound 0.316 µM
Field 'label' (enum: True / False). Set to True when IC50 is strictly under 1 µM; else False.

Worked set:
{"Compound": "C#Cc1c(F)ccc2cc(O)cc(-c3ncc4c(N5CC6CCC(C5)N6)nc(OCC56CCCN5CC(F)C6)nc4c3F)c12 (stereo unspecified) + CN(C)c1ccc(Nc2c3ccc(NC(=O)CCN4CCCC4)cc3nc3cc(NC(=O)CCN4CCCC4)ccc23)cc1", "Assigned class": "False"}
{"Compound": "CC(=O)O[C@H]1C(=O)[C@@]2(C)[C@H]([C@H](OC(=O)c3ccccc3)[C@]3(O)C[C@H](OC(=O)[C@H](O)[C@@H](NC(=O)c4ccccc4)c4ccccc4)C(C)=C1C3(C)C)[C@]1(OC(C)=O)CO[C@@H]1C[C@@H]2O + Cc1cnc(CNC(=O)c2c(=O)c3ccc(N4CCCN(C)CC4)nc3n3c2sc2ccccc23)cn1", "Assigned class": "False"}
{"Compound": "CCCS(=O)(=O)Nc1ccc(F)c(C(=O)c2c[nH]c3ncc(-c4ccc(Cl)cc4)cc23)c1F + Cc1cnc(CNC(=O)c2c(=O)c3ccc(N4CCCN(C)CC4)nc3n3c2sc2ccccc23)cn1", "Assigned class": "False"}
{"Compound": "C=CC(=O)N1CCN(c2nc(=O)n(-c3c(C)ccnc3C(C)C)c3nc(-c4c(O)cccc4F)c(F)cc23)C(C)C1 (stereo unspecified) + Cc1cnc(CNC(=O)c2c(=O)c3ccc(N4CCCN(C)CC4)nc3n3c2sc2ccccc23)cn1", "Assigned class": "False"}
{"Compound": "O=C(NO)c1cnc(N2CCN(S(=O)(=O)c3ccc4ccccc4c3)CC2)nc1 + Cc1[nH]c2ccc(F)cc2c1-c1nc2c3cccnc3c3ncccc3c2[nH]1", "Assigned class": "False"}
{"Compound": "O=C(c1cc(Cc2n[nH]c(=O)c3ccccc23)ccc1F)N1CCN(C(=O)C2CC2)CC1 + Cc1[nH]c2ccc(F)cc2c1-c1nc2c3cccnc3c3ncccc3c2[nH]1", "Assigned class": "False"}
{"Compound": "O=c1[nH]cc(F)c(=O)[nH]1 + Cc1cnc(CNC(=O)c2c(=O)c3ccc(N4CCCN(C)CC4)nc3n3c2sc2ccccc23)cn1", "Assigned class": "False"}
{"Compound": "O=C(c1cc(Cc2n[nH]c(=O)c3ccccc23)ccc1F)N1CCN(C(=O)C2CC2)CC1 + CN(C)c1ccc(Nc2c3ccc(NC(=O)CCN4CCCC4)cc3nc3cc(NC(=O)CCN4CCCC4)ccc23)cc1", "Assigned class": "False"}
{"Compound": "CC1COCCN1c1cc(C2(O)CC3CCC(C2)O3)c2cnn(-c3ccn[nH]3)c2n1 (stereo unspecified) + Cc1[nH]c2ccc(F)cc2c1-c1nc2c3cccnc3c3ncccc3c2[nH]1", "Assigned class": "False"}
{"Compound": "CC1COCCN1c1cc(C2(S(C)(=N)=O)CC2)nc(-c2ccnc3[nH]ccc23)n1 (stereo unspecified) + Cc1cnc(CNC(=O)c2c(=O)c3ccc(N4CCCN(C)CC4)nc3n3c2sc2ccccc23)cn1", "Assigned class": "False"}

--- query ---
Exercise: Does this compound meet the criterion IC50 < 1 µM? Cc1cccc(N(C)C(=O)C2C(O)CCN2c2nc(C)cc(C(F)(F)F)c2C#N)c1 (stereo unspecified) + Cc1cnc(CNC(=O)c2c(=O)c3ccc(N4CCCN(C)CC4)nc3n3c2sc2ccccc23)cn1
Solution: False
